# Tested on: A498
# PROTOCOL_SUMMARY: NCI tumour cell line growth inhibition, 48 h
Activity calls are given as the source filed them. Cut-off read from the data, not from the text of the source: active = GI50 up to about 1.1 µM and inactive = higher.
QUANTITY_KIND: GI50

Quote A498 GI50 for entry "Brc1ccc(C[P+]2(c3ccccc3)CCCCC2)cc1.[O-][Cl+3]([O-])([O-])[O-]" . > 100 µM (inactive)

Quote A498 GI50 for entry COc1cc2c(cc1OC)C13CC[N+]4(C)CC5=CCOC6CC(=O)N2C1C6C5CC34[O-] (centres undefined) . > 100 µM (inactive)

Quote A498 GI50 for entry Nc1nc(Cl)cc(NCC2(CO)CC(Cc3ccccc3)C2)n1 (centres undefined) . 10.1 µM (inactive)

Quote A498 GI50 for entry "CSC(=S)Nc1cccc(C)n1" . > 100 µM (inactive)

Quote A498 GI50 for entry "CN1C(Cl)=NS(=O)(=O)c2ccccc21" . 58.2 µM (inactive)

Quote A498 GI50 for entry "Nc1ccc(O)c2c1C(=O)c1c(N)ccc(O)c1C2=O" . > 100 µM (inactive)

Quote A498 GI50 for entry Cc1nn(C(=O)c2ccccc2O)c2c1C(c1ccc([N+](=O)[O-])cc1)SC(=N)N2 (centres undefined) . 2.78 µM (inactive)

Quote A498 GI50 for entry "NC1=Nc2ccccc2Sc2nnc(-c3ccc(Cl)cc3)n21" . 20.4 µM (inactive)

Quote A498 GI50 for entry "Oc1nc2cc3nc(O)c(O)nc3cc2nc1O" . > 100 µM (inactive)

----------
# System: SK-OV-3
# PROTOCOL_SUMMARY: NCI tumour cell line growth inhibition, 48 h
Active and inactive are the calls of the source. Cut-off read from the data, not from the text of the source: active = GI50 up to about 1.1 µM and inactive = higher.
QUANTITY_KIND: GI50

Give the reported GI50 for this compound. "CC(C)(C)c1cc(C(=O)/C=C/c2ccc(O)c(O)c2O)cc(C(C)(C)C)c1O" 3.87 µM (inactive)

Give the reported GI50 for this compound. "CC1(C)CC(/C=C2/OC(=O)c3ccccc32)=C(C#N)C(=O)O1" > 100 µM (inactive)

Give the reported GI50 for this compound. O=C1OC(CS(=O)(=O)c2ccccc2)CC1O (stereo not given) > 100 µM (inactive)

Give the reported GI50 for this compound. C[Si]1(C)C(c2ccccc2)=CC2C(c3ccccc3)(c3ccccc3)OC21c1ccccc1 (stereo not given) > 100 µM (inactive)

Give the reported GI50 for this compound. Cc1c(Cl)ccc2c1NC(=O)C2(O)C(C(=O)c1ccccc1)c1ccccc1 (stereo not given) > 100 µM (inactive)

Give the reported GI50 for this compound. "COc1cc(C2=C(c3cc(OC)c4ccccc4c3OC)C(=O)c3ccccc3C2=O)c(OC)c2ccccc12" > 100 µM (inactive)

Give the reported GI50 for this compound. "CCCCCCCCCCCC(=O)OCCOCCOCCOCCOCCOCc1ccccc1" > 100 µM (inactive)

Give the reported GI50 for this compound. CC(C)C1=CC(=O)C(C)(C2=NC(C)(C)CO2)c2ccccc21 (stereo not given) 88.5 µM (inactive)

Give the reported GI50 for this compound. "Cc1ccn2c(CCc3nnc4cc(C)ccn34)nnc2c1" > 100 µM (inactive)

Give the reported GI50 for this compound. "CN(C)CCCCN1c2ccccc2Sc2cc(N=[N+]=[N-])ccc21" 2.2 µM (inactive)

----------
# Test system: LOX IMVI
# PROTOCOL_SUMMARY: NCI tumour cell line growth inhibition, 48 h
The source made the active and inactive calls. No stated cut-off is given here; in the data, active = GI50 up to about 1.1 µM and inactive = higher.
Returns: one label drawn from TRUE for active, FALSE for inactive

What outcome does the record of this test show for Cc1ccccc1C1CC(=O)CC(c2ccccc2C)C12C(=O)NC(=S)NC2=O (stereo unspecified) ? FALSE

What outcome does the record of this test show for COc1cc([C@@H]2c3cc4c(cc3[C@@H](NC(=O)c3cccc(C#N)c3)C3COC(=O)[C@@H]32)OCO4)cc(OC)c1O (stereo partly specified) ? TRUE

What outcome does the record of this test show for "Cc1c(Cl)ccc2c(=O)c3cccc(CC(=O)O)c3oc12" ? FALSE

What outcome does the record of this test show for FC(F)(F)C1(c2ccccc2)SCc2nc3ccccc3n21 (stereo unspecified) ? FALSE

What outcome does the record of this test show for O=C1CCC2(c3ccccc3)OCC([C@@H](O)c3ccccc3)N12 (stereo partly specified) ? FALSE

What outcome does the record of this test show for Nc1nc(Cl)cc(NCC2(CO)CC(Cc3ccccc3)C2)n1 (stereo unspecified) ? FALSE
